# Target or system: Nox4 (Homo sapiens)
# Construct: expressed in transfected cells
# Sequence (Q9NPH5 1-578): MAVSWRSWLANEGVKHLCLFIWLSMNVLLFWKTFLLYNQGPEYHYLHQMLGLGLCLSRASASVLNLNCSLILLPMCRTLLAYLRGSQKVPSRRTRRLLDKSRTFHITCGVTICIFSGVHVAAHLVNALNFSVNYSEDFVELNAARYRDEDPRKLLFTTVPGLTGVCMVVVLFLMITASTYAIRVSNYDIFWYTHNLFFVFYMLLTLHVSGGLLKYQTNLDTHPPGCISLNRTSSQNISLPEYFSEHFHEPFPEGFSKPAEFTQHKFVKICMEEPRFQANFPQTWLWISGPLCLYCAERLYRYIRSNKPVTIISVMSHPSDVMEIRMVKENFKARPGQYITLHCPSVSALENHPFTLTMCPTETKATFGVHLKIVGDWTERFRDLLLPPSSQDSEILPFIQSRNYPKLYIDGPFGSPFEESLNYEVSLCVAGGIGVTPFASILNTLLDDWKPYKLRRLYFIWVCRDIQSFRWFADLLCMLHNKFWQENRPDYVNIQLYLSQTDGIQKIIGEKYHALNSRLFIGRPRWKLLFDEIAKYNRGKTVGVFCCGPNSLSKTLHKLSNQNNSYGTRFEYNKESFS
# Sequence (P13498 1-195 partner): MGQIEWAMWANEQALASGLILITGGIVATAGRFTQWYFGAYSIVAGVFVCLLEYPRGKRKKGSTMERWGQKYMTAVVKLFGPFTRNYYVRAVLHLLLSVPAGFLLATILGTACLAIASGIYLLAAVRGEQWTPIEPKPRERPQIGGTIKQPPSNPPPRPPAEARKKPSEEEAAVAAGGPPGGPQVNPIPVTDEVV
# Assay text: Inhibition of Nox4-dependent H2O2 production in HEK/Nox4 cells, Amplex Red assay
# Type: cell-based
# Experimental context: 1 μM final concentration, 1 h, HEK/Nox4 cells; DMSO vehicle = 1.000; n = 3-10; read-out: H2O2 production relative to vehicle control, Mean
Experimental endpoint: remaining activity at 1 µM

- Compound: "O=S(=O)(NCCN1CCc2ccccc21)N1CCOCC1"
  Experimental endpoint: "remaining activity at 1 µM"
  Test value: "96%"
- Compound: "CC(CNS(=O)(=O)c1ccc(C(F)(F)F)cc1)N1CCc2ccccc21 (stereo not drawn)"
  Experimental endpoint: "remaining activity at 1 µM"
  Test value: "89.3%"
- Compound: "O=S(=O)(NCCN1CCc2ccccc21)c1ccc(Oc2ccc(C(F)(F)F)cn2)cc1"
  Experimental endpoint: "remaining activity at 1 µM"
  Test value: "85.5%"
- Compound: "CC(CNC(=O)N1CCN(C)CC1)N1CCc2ccccc21 (stereo not drawn)"
  Experimental endpoint: "remaining activity at 1 µM"
  Test value: "91.5%"
- Compound: "CC(CNS(=O)(=O)N1CCCC1)N1CCc2ccccc21 (stereo not drawn)"
  Experimental endpoint: "remaining activity at 1 µM"
  Test value: "98.4%"
- Compound: "CCN(CC)C(=O)NCC(C)N1CCc2ccccc21 (stereo not drawn)"
  Experimental endpoint: "remaining activity at 1 µM"
  Test value: "82.2%"
- Compound: "CC(CNS(=O)(=O)c1ccc(Oc2ccc(C(F)(F)F)cn2)cc1)N1CCc2ccccc21 (stereo not drawn)"
  Experimental endpoint: "remaining activity at 1 µM"
  Test value: "91.4%"
- Compound: "CC(CNC(=O)N1CCCC1)N1CCc2ccccc21 (stereo not drawn)"
  Experimental endpoint: "remaining activity at 1 µM"
  Test value: "73.7%"
- Compound: "O=C(CCN1CCN(c2ncccn2)CC1)N1CCc2ccccc21"
  Experimental endpoint: "remaining activity at 1 µM"
  Test value: "111%"
- Compound: "CN(C)S(=O)(=O)N1CCN(CCC(=O)N2CCc3ccccc32)CC1"
  Experimental endpoint: "remaining activity at 1 µM"
  Test value: "112%"
- Compound: "O=S(=O)(NCCN1CCc2ccccc21)c1ccc(C(F)(F)F)cc1"
  Experimental endpoint: "remaining activity at 1 µM"
  Test value: "82.3%"
- Compound: "CN(C)S(=O)(=O)N1CCN(CC(=O)N2CCc3ccccc32)CC1"
  Experimental endpoint: "remaining activity at 1 µM"
  Test value: "108%"
- Compound: "O=C(CCN1CCN(S(=O)(=O)N2CCCCC2)CC1)N1CCc2ccccc21"
  Experimental endpoint: "remaining activity at 1 µM"
  Test value: "111%"
- Compound: "O=S(=O)(c1ccc(OC(F)(F)F)cc1)N1CCN(CCN2CCc3ccccc32)CC1"
  Experimental endpoint: "remaining activity at 1 µM"
  Test value: "88.7%"
- Compound: "Fc1ccccc1CN1CCN(CCN2CCc3ccccc32)CC1"
  Experimental endpoint: "remaining activity at 1 µM"
  Test value: "93.9%"
- Compound: "N#Cc1ccc(S(=O)(=O)NCCN2CCc3ccccc32)cc1"
  Experimental endpoint: "remaining activity at 1 µM"
  Test value: "90.8%"
- Compound: "COc1ccc(-c2nc(C(=O)NCC(C)N3CCc4ccccc43)cs2)cc1 (stereo not drawn)"
  Experimental endpoint: "remaining activity at 1 µM"
  Test value: "90.2%"
- Compound: "O=C(CCN1CCN(S(=O)(=O)N2CCOCC2)CC1)N1CCc2ccccc21"
  Experimental endpoint: "remaining activity at 1 µM"
  Test value: "108%"

----------
# Target or system: Nox4 (Homo sapiens, UniProt Q9NPH5)
# Construct: expressed in transfected cells
# Assay text: Inhibition of Nox4-dependent H2O2 production in HEK/Nox4 cells, Amplex Red assay
# Type: cell-based
# Experimental context: 10 μM final concentration, 1 h, HEK/Nox4 cells; DMSO vehicle = 1.000; n = 3-10; read-out: H2O2 production relative to vehicle control, Mean
List of remaining activity at 10 µM values.

- Compound: "CCN(CC)S(=O)(=O)N1CCN(CCN2CCc3ccccc32)CC1 [UANOX063]"
  Unit of measurement: "%"
  remaining activity at 10 µM: 66.5
- Compound: "CC(CNS(=O)(=O)c1ccc(C#N)cc1)N1CCc2ccccc21 (stereo not shown) [UANOX073]"
  Unit of measurement: "%"
  remaining activity at 10 µM: 74.4
- Compound: "CC(CNS(=O)(=O)N1CCN(C)CC1)N1CCc2ccccc21 (stereo not shown) [UANOX037]"
  Unit of measurement: "%"
  remaining activity at 10 µM: 77.3
- Compound: "CN1CCN(C(=O)NCCN2CCc3ccccc32)CC1 [UANOX011]"
  Unit of measurement: "%"
  remaining activity at 10 µM: 95.6
- Compound: "CC(CNS(=O)(=O)c1ccc(OC(F)(F)F)cc1)N1CCc2ccccc21 (stereo not shown) [UANOX049]"
  Unit of measurement: "%"
  remaining activity at 10 µM: 71.4
- Compound: "O=S(=O)(NCCN1CCc2ccccc21)N1CCCC1 [UANOX004]"
  Unit of measurement: "%"
  remaining activity at 10 µM: 88.2
- Compound: "O=S(=O)(NCCN1CCc2ccccc21)N1CCCCC1 [UANOX013]"
  Unit of measurement: "%"
  remaining activity at 10 µM: 88.1
- Compound: "O=C(CNC1CCCCCC1)N1CCc2ccccc21 [UANOX023]"
  Unit of measurement: "%"
  remaining activity at 10 µM: 100
- Compound: "Fc1ccccc1CN1CCN(CCN2CCc3ccccc32)CC1 [UANOX067]"
  Unit of measurement: "%"
  remaining activity at 10 µM: 85.1
- Compound: "CC(CNS(=O)(=O)c1ccc(C(F)(F)F)cc1)N1CCc2ccccc21 (stereo not shown) [UANOX048]"
  Unit of measurement: "%"
  remaining activity at 10 µM: 69.3

----------
# Target or system: Nox4 (Homo sapiens, UniProt Q9NPH5)
# Construct: expressed in transfected cells
# Sequence (Q9NPH5 1-578): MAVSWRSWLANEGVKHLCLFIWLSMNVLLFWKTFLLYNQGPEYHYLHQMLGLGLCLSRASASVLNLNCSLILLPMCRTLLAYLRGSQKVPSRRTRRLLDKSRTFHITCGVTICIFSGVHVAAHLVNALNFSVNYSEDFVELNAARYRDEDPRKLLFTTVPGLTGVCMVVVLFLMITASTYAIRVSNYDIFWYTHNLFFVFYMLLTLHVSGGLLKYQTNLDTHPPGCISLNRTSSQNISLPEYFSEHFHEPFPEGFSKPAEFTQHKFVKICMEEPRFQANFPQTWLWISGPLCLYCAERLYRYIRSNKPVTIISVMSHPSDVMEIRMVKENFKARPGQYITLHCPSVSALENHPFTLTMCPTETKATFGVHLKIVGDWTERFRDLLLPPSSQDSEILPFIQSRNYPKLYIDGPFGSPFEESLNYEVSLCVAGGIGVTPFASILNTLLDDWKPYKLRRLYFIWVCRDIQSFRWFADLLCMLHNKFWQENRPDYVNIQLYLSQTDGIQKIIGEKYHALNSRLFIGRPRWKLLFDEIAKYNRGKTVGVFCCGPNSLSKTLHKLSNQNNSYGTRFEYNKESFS
# Sequence (P13498 1-195 partner): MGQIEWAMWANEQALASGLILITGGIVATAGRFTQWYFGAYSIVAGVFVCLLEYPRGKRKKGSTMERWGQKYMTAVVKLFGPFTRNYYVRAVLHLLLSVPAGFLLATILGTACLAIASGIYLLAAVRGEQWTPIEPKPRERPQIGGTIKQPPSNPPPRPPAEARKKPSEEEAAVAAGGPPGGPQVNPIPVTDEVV
# Assay text: Inhibition of Nox4-dependent H2O2 production in HEK/Nox4 cells, Amplex Red assay
# Format: cell-based
# Experimental context: 5 μM final concentration, 1 h, HEK/Nox4 cells; DMSO vehicle = 1.000; n = 3-10; read-out: H2O2 production relative to vehicle control, Mean
List of remaining activity at 5 µM values.
Experimental endpoint: remaining activity at 5 µM (%)

- Molecule: "CC(CNS(=O)(=O)N1CCCC1)N1CCc2ccccc21 (stereo not shown) [UANOX008]"
  Target or system: "Nox4 (Homo sapiens, UniProt Q9NPH5)"
  Test value: 77.9
- Molecule: "O=S(=O)(NCCN1CCc2ccccc21)N1CCCC1 [UANOX004]"
  Target or system: "Nox4 (Homo sapiens, UniProt Q9NPH5)"
  Test value: 101
- Molecule: "COc1ccc(S(=O)(=O)NCC(C)(C)N2CCc3ccccc32)cc1 [UANOX089]"
  Target or system: "Nox4 (Homo sapiens, UniProt Q9NPH5)"
  Test value: 83.6
- Molecule: "CCN(CC)S(=O)(=O)N1CCN(CCC(=O)N2CCc3ccccc32)CC1 [UANOX029]"
  Target or system: "Nox4 (Homo sapiens, UniProt Q9NPH5)"
  Test value: 112
- Molecule: "CC(C)(CNS(=O)(=O)c1ccc(F)cc1)N1CCc2ccccc21 [UANOX086]"
  Target or system: "Nox4 (Homo sapiens, UniProt Q9NPH5)"
  Test value: 81.6
- Molecule: "O=S(=O)(NCCN1CCc2ccccc21)c1ccc(OC(F)(F)F)cc1 [UANOX076]"
  Target or system: "Nox4 (Homo sapiens, UniProt Q9NPH5)"
  Test value: 72
- Molecule: "O=C(CN1CCN(c2ncccn2)CC1)N1CCc2ccccc21 [UANOX0192]"
  Target or system: "Nox4 (Homo sapiens, UniProt Q9NPH5)"
  Test value: 111
- Molecule: "CC(CNC(=O)c1csc(-c2ccccc2)n1)N1CCc2ccccc21 (stereo not shown) [UANOX055]"
  Target or system: "Nox4 (Homo sapiens, UniProt Q9NPH5)"
  Test value: 90.8
- Molecule: "COc1ccc(S(=O)(=O)NCC(C)N2CCc3ccccc32)cc1 (stereo not shown) [UANOX034]"
  Target or system: "Nox4 (Homo sapiens, UniProt Q9NPH5)"
  Test value: 80.3
- Molecule: "O=S(=O)(NCCN1CCc2ccccc21)c1ccc(F)c(F)c1 [UANOX081]"
  Target or system: "Nox4 (Homo sapiens, UniProt Q9NPH5)"
  Test value: 67
- Molecule: "CN1CCN(C(=O)NCCN2CCc3ccccc32)CC1 [UANOX011]"
  Target or system: "Nox4 (Homo sapiens, UniProt Q9NPH5)"
  Test value: 97.9
- Molecule: "O=S(=O)(c1ccc(F)cc1)N1CCN(CCN2CCc3ccccc32)CC1 [UANOX064]"
  Target or system: "Nox4 (Homo sapiens, UniProt Q9NPH5)"
  Test value: 75.7
- Molecule: "Fc1ccccc1CN1CCN(CCN2CCc3ccccc32)CC1 [UANOX067]"
  Target or system: "Nox4 (Homo sapiens, UniProt Q9NPH5)"
  Test value: 91.2
